assay_target: E3 ubiquitin-protein ligase Mdm2 (Homo sapiens, UniProt Q00987)
Sequence (Q00987 whole entry): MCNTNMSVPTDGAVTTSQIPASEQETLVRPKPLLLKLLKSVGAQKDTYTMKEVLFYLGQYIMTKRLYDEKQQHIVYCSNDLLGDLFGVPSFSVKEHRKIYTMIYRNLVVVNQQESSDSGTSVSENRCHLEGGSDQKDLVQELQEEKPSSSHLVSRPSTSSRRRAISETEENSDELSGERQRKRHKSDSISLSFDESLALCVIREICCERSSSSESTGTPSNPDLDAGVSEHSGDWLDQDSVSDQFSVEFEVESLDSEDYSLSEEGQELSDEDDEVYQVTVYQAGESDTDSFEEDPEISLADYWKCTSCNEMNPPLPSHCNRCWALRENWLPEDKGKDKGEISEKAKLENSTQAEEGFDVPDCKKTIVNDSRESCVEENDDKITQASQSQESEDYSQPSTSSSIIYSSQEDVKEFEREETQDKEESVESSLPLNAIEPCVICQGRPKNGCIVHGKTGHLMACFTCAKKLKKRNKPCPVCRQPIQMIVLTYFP
assay_protocol: Inhibition of p53-Hdm2 interaction by FP assay
property_measured: IC50

Lab note: measured IC50 of C=CCOc1cc(Cl)ccc1CN1C(=O)c2cc(I)ccc2N(CCOCCOC)C(=O)[C@@H]1c1ccc(Cl)cc1 was > 12.5 µM

====

The following compounds are shown together with reported Activity values.
Tested on: JAR
assay_protocol: Induction of PIG3 production in JAR cells at 3.3 uM
Format: functional, Homo sapiens
Number only, in ng/mg; omit the unit.

Past entries and their recorded results:
CN(C)CCCN1C(=O)[C@H](c2ccc(Cl)cc2)N(Cc2ccc(Cl)cc2N)C(=O)c2cc(I)ccc21	68
C[C@H](c1ccc(Cl)cc1N)N1C(=O)c2cc(I)ccc2N(CCN2CCOCC2)C(=O)[C@@H]1c1ccc(Cl)cc1	234
COCCOCCN1C(=O)[C@H](c2ccc(Cl)cc2)N(Cc2ccc(Cl)cc2O)C(=O)c2cc(I)ccc21	74
C[C@H](c1cc(F)c(Cl)cc1N)N1C(=O)c2cc(I)ccc2N(CCN2CCOCC2)C(=O)[C@@H]1c1ccc(Cl)cc1	110

Lab note: measured Activity of COCCOCCN1C(=O)[C@H](c2ccc(Cl)cc2)N([C@H](C)c2ccc(Cl)cc2N)C(=O)c2cc(I)ccc21 was 218
